# TARGET OF ASSAY: Phenylethanolamine N-methyltransferase (Homo sapiens)
# TEST METHOD NOTES: Confirmatory Screen for Target Class Profiling of Small Molecule Inhibitors of Methyltransferases (AID 1745852)
# CONDITION SET: MTase-Glo luminescence, SAH detection, recombinant enzyme; measured here: PNMT max response; stronger effect = lower value
READOUT: activity (%)
Quick note: give the figure in %, leave out the unit.

The following compounds have reported results that may help.
CC(C)(O)C1CC=C(C(=O)OC[C@H]2O[C@@H](OC(=O)C3=CCC(C(C)(C)O)CC3)[C@H](O)[C@@H](O)[C@@H]2O)CC1 (some centres undefined) : -5.85
COc1cc(/C=C/C(=O)OCC2OC(OC3(CO)OC(CO)C(O)C3O)C(O)C(O)C2O)ccc1O (centres undefined) : 3.04
O=C(/C=C/c1ccc(O)cc1)OC[C@@]1(O)C=C[C@@H]2C(C(=O)O)=CO[C@@H](O[C@@H]3O[C@H](CO)[C@@H](O)[C@H](O)[C@H]3O)[C@@H]21 : 0.204

Which value of activity has been reported for COc1cnc(-c2ccc(Cn3c(CC(C)(C)C(=O)O)c(SC(C)(C)C)c4cc(OC[C@@H]5Cc6ccccc6N5C(C)=O)ccc43)cc2)nc1 in the records? -8.45

---

# TEST METHOD NOTES: Primary fluorescence-based thiol-reactive (MSTI) qHTS assay for identification of artifact compounds. (AID 1845221);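 further: thiol-reactive compounds lower the probe fluorescence signal; nearly all actives have a fitted effect of over 65% in size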
# CONDITION SET: MSTI thiol-reactivity probe, 1 h; series mostly up to 53.8 µM
Records with an inconclusive call do not appear. The source made the active and inactive calls. Calls follow the shape of the dose curve; as a rule, active = well fitted inhibition curve with a large enough effect; inconclusive = small, poorly fitted or top-dose-only effect; inactive = no such curve, though single readings can be large or run the other way.
Valid outcomes are listed here; reply with one: Y = active, N = inactive

O=C(N[C@H](Cc1ccccc1)C(=O)O)c1sc2cc(F)ccc2c1Cl : N

Record lookup: outcome of this test for C=C(COC(=O)C(C)C)C1Oc2cc(C(C)=O)ccc2C1OC(=O)C(C)C (stereo not drawn) ? N

---

# System: CRL-7250
# TEST METHOD NOTES: Cytotoxic Profiling of Annotated Libraries Using Quantitative High-Throughput Screening (AID 1296008); further: on the % scale 0 is the no-effect control and ±100 the full control effect; nearly all actives have a fitted effect of over 60% in size
# CONDITION SET: Five cell lines viability, CellTiter-Glo ATP luminescence, 48-72 h; stronger effect = lower value
Inconclusive results are not listed.
READOUT: max response (%)
Provide the reading as a plain figure in %.

Some solved entries appear below for comparison.
O=C(O)c1ccnc2cc(-c3nc4ccccc4n3CCN3CCCCC3)sc12 : 1.05
CCC(C)C(=O)O[C@H]1[C@@H](O[C@H]2O[C@H](CO)[C@@H](O)[C@H](O)[C@H]2O)O[C@H](CO)[C@@H](O)[C@@H]1O (some centres undefined) : -1.24
Cn1cc(Nc2cnccc2C(=O)O)c2cccnc21 : 1.11
C=C(C)[C@H]1CC[C@]2(C(=O)O)CC[C@]3(C)C(CCC4[C@@]5(C)CCC(=O)C(C)(C)C5CC[C@]43C)C12 (some centres undefined) : -18.5

Quick one: max response for CC1=C(CCC(C)O[C@@H]2O[C@H](CO)[C@@H](O)[C@H](O)[C@H]2O)C(C)(C)CC(O)C1 (some centres undefined) ? -1.39

Quick one: C=C1CCC2[C@@](C)(C(=O)O)CCC[C@@]2(C)[C@@H]1CCc1ccoc1 (some centres undefined) -7.76

Now this one: COc1cc(Cc2cnc(N)nc2N)c(C(C)C)cc1OC -4.26

Now give it for CC(C)N(CCCNC(=O)Nc1ccc(C(C)(C)C)cc1)C[C@H]1O[C@@H](n2ccc3c(N)ncnc32)[C@H](O)[C@@H]1O too. 1.45

Also, CCC(C)/C=C(C)/C=C/C(=O)C1CCC(O)C(C)(O)C1=O (centres undefined) please. 4.93

Source: PubChem BioAssay (NCATS)
